# system name: human A2a adenosine receptor (Homo sapiens (Human), UniProt P29274)
# Sequence (P29274 whole entry): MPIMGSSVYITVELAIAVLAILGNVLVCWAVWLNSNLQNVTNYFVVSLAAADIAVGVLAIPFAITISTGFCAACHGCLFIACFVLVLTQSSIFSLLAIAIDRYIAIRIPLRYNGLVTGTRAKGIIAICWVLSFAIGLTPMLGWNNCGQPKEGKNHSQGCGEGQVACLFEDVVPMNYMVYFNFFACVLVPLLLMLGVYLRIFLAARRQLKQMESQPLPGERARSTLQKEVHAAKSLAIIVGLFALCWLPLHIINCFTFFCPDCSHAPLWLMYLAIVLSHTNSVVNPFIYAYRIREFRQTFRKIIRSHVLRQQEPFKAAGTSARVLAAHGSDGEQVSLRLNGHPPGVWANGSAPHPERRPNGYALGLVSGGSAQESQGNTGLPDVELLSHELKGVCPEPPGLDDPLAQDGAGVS
# assay name: A2a receptor affinity radioligand binding assay ([3H] SCH58261, membranes from HEK293 or CHO cells)
# particulars: unstarred values: radioligand binding
Labelling field: enter Yes if recorded IC50 is less than 1 nM. Enter No if it equals or exceeds that cut-off.

INSERT INTO assay_data (molecule, assigned_class) VALUES
  ('COc1cccc2c1nc(N)n1nc([C@@H]3CCCN(c4cn(C5CCOCC5)nc4C)C3)nc21', 'Yes'),
  ('COc1ccc2c(c1)nc(N)n1nc([C@@H]3CCCN(c4cnn(CC5(O)CCC5)c4)C3)nc21', 'Yes'),
  ('COc1cccc2c1nc(N)n1nc([C@@H]3CCCN(c4cc(C(F)(F)F)c(=O)n(C)c4)C3)nc21', 'Yes'),
  ('COc1ccc2c(c1)nc(N)n1nc([C@H]3C[C@@H](F)CN(c4cnn(CC(C)(C)O)c4)C3)nc21 [Example 196A]', 'No'),
  ('COc1cccc2c1nc(N)n1nc([C@@H]3CC[C@H](C)N(c4cnn(C(C)C(C)(C)O)c4)C3)nc21 (single isomer, unassigned) [Example 147C]', 'No'),
  ('COc1cccc2c1nc(N)n1nc(C3CCC(C)N(c4cnn(CC5(O)CCC5)c4)C3)nc21 (single isomer, unassigned) [Example 144D]', 'No'),
  ('COc1cccc2c1nc(N)n1nc(C3CCC(C)N(c4cnn(CC(F)(F)F)c4)C3)nc21 (single isomer, unassigned) [Example 142B]', 'Yes'),
  ('COc1cccc2c1nc(N)n1nc([C@@H]3CCCN(c4cnn(C(C)C)c4)C3)nc21', 'No'),
  ('COc1cccc2c1nc(N)n1nc(C3CCC[C@](O)(c4cnn(C)c4)C3)nc21 (single isomer, unassigned) [Example 134A]', 'No'),
  ('COc1cccc2c1nc(N)n1nc([C@@H]3CCCN(c4cnn(CS(C)(=O)=O)c4)C3)nc21', 'Yes'),
  ('COc1ccc2c(c1)nc(N)n1nc([C@@H]3CCCN(c4cnn(C)c4)C3)nc21', 'No'),
  ('Cc1ccc2c(c1)nc(N)n1nc([C@@H]3CC[C@H](C)N(c4cnn(CC(C)(C)O)c4)C3)nc21 (single isomer, unassigned)', 'Yes'),
  ('COc1ccc2c(c1)nc(N)n1nc([C@@H]3CCCN(c4cnn(CC(F)(F)F)c4)C3)nc21', 'No'),
  ('COc1ccc2c(c1)nc(N)n1nc([C@@H]3C[C@H](C)CN(c4cnn(CC(C)(C)O)c4)C3)nc21 (single isomer, unassigned) [Example 195D]', 'Yes'),
  ('COc1cccc2c1nc(N)n1nc([C@@H]3CCCN(c4cnn(C5CCOCC5)c4)C3)nc21', 'Yes'),
  ('COc1ccc2c(c1)nc(N)n1nc([C@@H]3CCCN(c4cnc(OC(F)F)c(C)c4)C3)nc21', 'No'),
  ('COc1ccc2c(c1)nc(N)n1nc([C@@H]3CCCN(c4cnn([C@H](C)[C@@H](C)O)c4)C3)nc21 [Example 220B]', 'No'),
  ('COc1cccc2c1nc(N)n1nc(C3CCC(C)N(c4cnn(CC(C)(C)O)c4)C3)nc21 (single isomer, unassigned) [Example 143D]', 'Yes'),
  ('COc1cccc2c1nc(N)n1nc([C@@H]3CCCN(c4ccc(C(C)C)nn4)C3)nc21', 'No'),
  ('COc1cccc2c1nc(N)n1nc([C@@H]3CCCN(c4cnn(C(F)F)c4)C3)nc21', 'No'),
  ('COc1cccc2c1nc(N)n1nc([C@@H]3CCCN(c4cncc(C(F)(F)F)n4)C3)nc21', 'Yes'),
  ('COc1cccc2c1nc(N)n1nc(C3CC(F)CN(c4cn(CC(C)(C)O)nc4C)C3)nc21 (centres unmarked)', 'No'),
  ('C[C@H]1CC[C@@H](c2nc3c4ccc(C(F)F)cc4nc(N)n3n2)CN1c1cnn(CC(C)(C)O)c1', 'No'),
  ('COc1cccc2c1nc(N)n1nc(C34CC(C3)N(c3cnn(C)c3)C4)nc21', 'No');

* * *

# system name: human A2b adenosine receptor (Homo sapiens (Human), UniProt P29275)
# Sequence (P29275 whole entry): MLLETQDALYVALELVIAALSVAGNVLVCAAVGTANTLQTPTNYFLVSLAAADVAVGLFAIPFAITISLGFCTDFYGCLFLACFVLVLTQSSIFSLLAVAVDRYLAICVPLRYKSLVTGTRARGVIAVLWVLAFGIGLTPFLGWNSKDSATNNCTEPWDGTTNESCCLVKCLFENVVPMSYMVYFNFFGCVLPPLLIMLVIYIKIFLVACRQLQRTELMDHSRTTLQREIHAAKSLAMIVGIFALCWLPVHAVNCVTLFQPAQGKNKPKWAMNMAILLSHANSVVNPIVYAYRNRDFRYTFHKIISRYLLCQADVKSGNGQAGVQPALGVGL
# assay name: A2b radioligand filtration binding assay (tritiated proprietary A2b antagonist, HEK293 membranes)
# particulars: unstarred values: radioligand binding
pIC50: −log10 of the molar value.
outcome measure: pIC50

INSERT INTO assay_data (compound, number) VALUES
  ('COc1cccc2c1nc(N)n1nc([C@@H]3CCCN(c4cn(CC(C)(C)O)nc4C)C3)nc21', 6.99),
  ('COc1cccc2c1nc(N)n1nc([C@@H]3CCCN(c4cnn([C@H]5C[C@@](C)(O)C5)c4)C3)nc21', 7.38),
  ('COc1c(Cl)ccc2c1nc(N)n1nc(C3CCCN(c4cnn(C)c4)C3)nc21 (single isomer, unassigned)', 6.39),
  ('COc1ccc2c(c1)nc(N)n1nc([C@H]3CC[C@@H](C)N(c4cnn([C@@H](C)C(C)(C)O)c4)C3)nc21 [Example 212A]', 5.26),
  ('COc1cccc2c1nc(N)n1nc(C3CCC(C)N(c4cnn(C5CC5)c4)C3)nc21 (single isomer, unassigned) [Example 141C]', 7.92),
  ('COc1cccc2c1nc(N)n1nc([C@@H]3CCCN(c4cnn(C(C)(C)C(=O)NC(C)C)c4)C3)nc21', 8.85),
  ('COc1cccc2c1nc(N)n1nc([C@@H]3CCCN(c4nn(C)nc4C)C3)nc21', 6.82);

* * *

Entries and their A2B binding % inh. @ 10000 nM
# system name: human A2b adenosine receptor (Homo sapiens (Human), UniProt P29275)
# assay name: A2b radioligand filtration binding assay (tritiated proprietary A2b antagonist, HEK293 membranes)
# particulars: @ 10000 nM, unstarred
outcome measure: A2B binding % inh. @ 10000 nM (% inh. @ 10000 nM)

INSERT INTO assay_data (compound, number) VALUES
  ('Cn1cc(N2CCCC(c3nc4c5cccc(O)c5nc(N)n4n3)C2)cn1 (single isomer, unassigned)', 10),
  ('COc1cccc2c1nc(N)n1nc(C3CC(F)CN(c4cn(CC(C)(C)O)nc4C)C3)nc21 (stereo not shown)', 27),
  ('COc1ccc2c(c1)nc(N)n1nc([C@H]3C[C@@H](F)CN(c4cn(CC(C)(C)O)nc4C)C3)nc21 [Example 197A]', 31),
  ('COc1ccc2c(c1)nc(N)n1nc([C@@H]3CCCN(c4cnn([C@H]5CCC[C@@H]5O)c4)C3)nc21 [Example 187B]', 16),
  ('COc1cccc2c1nc(N)n1nc(C3CCCN(c4cnn(C)c4)[C@@H]3C)nc21 (stereo partly shown) [Example 128B]', 14),
  ('COc1cccc2c1nc(N)n1nc([C@@H]3CCCN(c4cc(C(F)(F)F)ccn4)C3)nc21', 18),
  ('Cn1cc(N2CCCC(c3nc4c5c(C(F)(F)F)cccc5nc(N)n4n3)C2)cn1 (single isomer, unassigned)', 28);

* * *

# system name: human A2a adenosine receptor (Homo sapiens (Human))
# assay name: A2a receptor affinity radioligand binding assay ([3H] SCH58261, membranes from HEK293 or CHO cells)
# particulars: unstarred values: radioligand binding
# From the text: The A2a receptor affinity binding assay measured the amount of binding of a tritiated ligand with high affinity for the A2a adenosine receptor to membranes made from HEK293 or CHO cells recombinantly expressing the human A2a adenosine receptor, in the presence of varying concentrations of a compound of the invention. Measurement of A2a Binding Affinity Using Radioligand Binding […]
As shown below, each of these compounds has a reported log10 IC50 value.
outcome measure: log10 IC50 (log10 of the value in nM)

INSERT INTO assay_data (compound, system_name, outcome_measure, number) VALUES
  ('COc1cccc2c1nc(N)n1nc([C@@H]3CCC[C@H](c4cnn(C)c4)C3)nc21 [Example 136D]', 'human A2a adenosine receptor (Homo sapiens (Human))', 'log10 IC50', 1.46),
  ('COc1cccc2c1nc(N)n1nc([C@H]3CCC4CCC3N4c3cnn(C)c3)nc21 (mixture of isomers) [Example 130A]', 'human A2a adenosine receptor (Homo sapiens (Human))', 'log10 IC50', 0.76),
  ('COc1cccc2c1nc(N)n1nc([C@@H]3CCCN(c4nnn(C)c4C)C3)nc21', 'human A2a adenosine receptor (Homo sapiens (Human))', 'log10 IC50', 0.20),
  ('COc1cccc2c1nc(N)n1nc([C@@H]3CCCN(c4cnn5ncccc45)C3)nc21', 'human A2a adenosine receptor (Homo sapiens (Human))', 'log10 IC50', -0.22),
  ('COc1cccc2c1nc(N)n1nc([C@@H]3CCCN(c4cnn(C5CCOCC5)n4)C3)nc21', 'human A2a adenosine receptor (Homo sapiens (Human))', 'log10 IC50', -0.05),
  ('CC[C@@H]1CC[C@@H](c2nc3c4cccc(OC)c4nc(N)n3n2)CN1c1cnn(CC(C)(C)O)c1 [Example 216A]', 'human A2a adenosine receptor (Homo sapiens (Human))', 'log10 IC50', 1.53),
  ('COc1cccc2c1nc(N)n1nc([C@@H]3CCO[C@@H](c4cnn(C)c4)C3)nc21 [Example 139B]', 'human A2a adenosine receptor (Homo sapiens (Human))', 'log10 IC50', 0.51),
  ('COc1cccc2c1nc(N)n1nc([C@@H]3CCCN(c4cn(CC5(O)CCC5)nc4C)C3)nc21', 'human A2a adenosine receptor (Homo sapiens (Human))', 'log10 IC50', 0.04);

Attribution: patent US12263171B2
